For each of the molecules below, state its IC50.
- Target: PBP3 from Pseudomonas aeruginosa (PAO1) (Pseudomonas aeruginosa)
- Sequence (G3XD46 whole entry): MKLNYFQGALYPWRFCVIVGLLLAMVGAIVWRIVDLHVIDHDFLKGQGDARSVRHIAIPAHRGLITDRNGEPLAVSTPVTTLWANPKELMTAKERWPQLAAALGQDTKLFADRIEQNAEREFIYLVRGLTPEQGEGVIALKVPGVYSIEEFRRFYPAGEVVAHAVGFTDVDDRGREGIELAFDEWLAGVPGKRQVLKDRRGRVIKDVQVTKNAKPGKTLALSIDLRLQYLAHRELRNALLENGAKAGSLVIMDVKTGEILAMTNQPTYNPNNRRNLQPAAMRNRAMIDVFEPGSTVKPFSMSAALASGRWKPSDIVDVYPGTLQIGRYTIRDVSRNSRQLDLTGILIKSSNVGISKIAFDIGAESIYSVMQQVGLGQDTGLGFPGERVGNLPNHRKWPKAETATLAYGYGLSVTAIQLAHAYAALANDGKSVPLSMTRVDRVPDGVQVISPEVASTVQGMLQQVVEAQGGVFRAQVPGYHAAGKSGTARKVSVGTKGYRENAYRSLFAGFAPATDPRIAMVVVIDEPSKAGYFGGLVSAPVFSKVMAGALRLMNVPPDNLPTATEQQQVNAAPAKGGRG
- Test Description: Bocillin-FL fluorescence polarization competition binding, P. aeruginosa PBP3
- Recorded Conditions: Binding affinity to P. aeruginosa PBP3; fluorescence polarization competition binding assay using Bocillin-FL; read-out: P. aeruginosa PBP3 Potency

# input Dear colleague, I am looking for the recorded IC50 of the following molecule: O=C(NCCCN1CCN(C(=O)NC(C(=O)N[C@H]2Cc3ccc(F)c(C(=O)O)c3OB2O)c2cc(F)c(O)c(O)c2Cl)C1=O)Nc1ccncc1 (stereo partly drawn)
# output < 10 µM

# input Requested field: IC50. Item: O=C(NCCS(=O)(=O)N1CCN(C(=O)N[C@@H](C(=O)N[C@H]2Cc3ccc(F)c(C(=O)O)c3OB2O)c2cc(F)c(O)c(O)c2Cl)C1=O)c1ccc(O)cc1
# output < 10 µM

# input Requested field: IC50. Item: O=C(O)c1c(F)ccc2c1OB(O)[C@@H](NC(=O)[C@H](NC(=O)N1CCN(Cc3ccc(O)c(O)c3Cl)C(=O)C1=O)c1ccc(P(=O)(O)O)cc1)C2 (single isomer, unassigned)
# output < 10 µM

# input Item CC(C)C(=O)NC(C(=O)N[C@H]1Cc2cccc(C(=O)O)c2OB1O)c1ccc(P(=O)(O)O)cc1 (stereo partly drawn) has what recorded IC50?
# output 10 to 50 µM

# input Give its IC50 value. Item: N#Cc1cccc(C(=O)N[C@@H](C(=O)N[C@H]2Cc3cccc(C(=O)O)c3OB2O)c2ccc(P(=O)(O)O)cc2)n1
# output < 10 µM

# input Look up IC50: O=C(O)c1cccc2c1OB(O)[C@@H](NC(=O)[C@@H](NC(=O)N1CCCCC1=O)c1ccc(P(=O)(O)O)cc1)C2
# output 50 to 250 µM
